biological target: IRAK4 (Homo sapiens); construct: His (N); TEV cleavage site (N); assay: IRAK4 Enzymatic Assay; settings: His-TEV-IRAK4 20 ng/well, ATP 2 μM, STK1-biotin peptide 300 nM, 3 hours at 30° C., FlashPlate radioactivity
Sequence (Q9NWZ3 whole entry): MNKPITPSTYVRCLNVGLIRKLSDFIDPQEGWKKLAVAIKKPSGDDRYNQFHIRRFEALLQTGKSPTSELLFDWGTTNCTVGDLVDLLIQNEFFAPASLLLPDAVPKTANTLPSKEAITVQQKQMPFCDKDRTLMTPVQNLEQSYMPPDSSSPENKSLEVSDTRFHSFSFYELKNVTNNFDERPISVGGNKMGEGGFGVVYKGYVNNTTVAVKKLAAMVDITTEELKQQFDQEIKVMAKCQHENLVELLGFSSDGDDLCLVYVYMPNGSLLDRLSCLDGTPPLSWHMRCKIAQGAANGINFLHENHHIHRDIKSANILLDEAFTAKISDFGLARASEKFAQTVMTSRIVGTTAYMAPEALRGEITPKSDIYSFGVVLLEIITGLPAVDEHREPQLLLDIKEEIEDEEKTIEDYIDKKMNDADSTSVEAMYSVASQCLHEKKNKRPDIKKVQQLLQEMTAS
value-type: IC50

Solved cases (3 shown):
Cn1cc(-c2cccc(-c3ncc(-c4cnn([C@H]5CC[C@H](C(=O)NCC(C)(C)O)CC5)c4)cn3)c2)cn1: < 100 nM
O=C(Cn1cc(-c2cnc(-c3cccc(-c4ccncc4)c3)nc2)cn1)N1CCOCC1: 1000 to 5000 nM
Cn1cc(-c2cccc(-c3ncc(-c4cnn(C5CCN(C(=O)CC(F)(F)F)CC5)c4)cn3)c2)cn1: 100 to 1000 nM

Incoming: Returns the measured IC50 for the input compound. Input: Cn1cc(-c2cccc(-c3ncc(-c4cnn([C@@H]5CCC[C@@H](O)C5)c4)cn3)c2)cn1 (relative stereo)
Outgoing: 100 to 1000 nM

Incoming: Returns the measured IC50 for the input compound. Input: `COCCNC(=O)[C@H]1CC[C@H](n2cc(-c3cnc(-c4cccc(-c5cnn(C)c5)c4)nc3)cn2)CC1`
Outgoing: < 100 nM

Incoming: Returns the measured IC50 for the input compound. Input: `COCC(=O)N1CCC(n2cc(-c3cnc(-c4cccc(-c5cnn(C)c5)c4)nc3)cn2)CC1`
Outgoing: 100 to 1000 nM

Incoming: Returns the measured IC50 for the input compound. Input: `Cn1cc(-c2cccc(-c3ncc(-c4cnn([C@H]5CC[C@H](C(=O)N6CC[C@H](O)C6)CC5)c4)cn3)c2)cn1`
Outgoing: < 100 nM

Hello, the source for this data is patent US9216991B2, in case you need it.
